Record form. Attribute: GI50. Fill in for each entry.
Tested on: OVCAR-3
Assay: NCI tumour cell line growth inhibition, 48 h
Calls of active or inactive are those of the source. Cut-off read from the data, not from the text of the source: active = GI50 up to about 1.1 µM and inactive = higher.

Example compounds with recorded GI50:
[
  {
    "compound": "COC(=O)NCCc1n[nH]c2c1C(=O)C=C(Nc1ccccc1)C2=O",
    "measured": "3.72 µM (inactive)"
  },
  {
    "compound": "COC(=O)[C@@H]1C=C[C@H](OC2OC(COC(C)=O)C(OC(C)=O)C(OC(C)=O)C2OC(C)=O)n2c(=O)n(-c3ccccc3)c(=O)n21 (some centres undefined)",
    "measured": "1.74 µM (inactive)"
  },
  {
    "compound": "Cc1c(CCN2CCOCC2)c(N2CCOCC2)n2c(nc3ccccc32)c1C#N",
    "measured": "> 10 µM (inactive)"
  },
  {
    "compound": "O=[N+]([O-])c1ccc(CSCc2ccc(Cl)cc2)cc1",
    "measured": "> 100 µM (inactive)"
  },
  {
    "compound": "C[n+]1c2ccccc2n2c3ccccc3c(NCCCN3CCOCC3)c(C#N)c21",
    "measured": "2.61 µM (inactive)"
  },
  {
    "compound": "COc1ccc(-c2[nH]c(=O)n(C3OC(CO)C(O)C(O)C3O)c(=O)c2C#N)cc1 (centres undefined)",
    "measured": "> 100 µM (inactive)"
  }
]

Hello, I would appreciate it if you could give GI50 for each entry below.
1. CCOC(=O)c1c(N2CCOCC2)[nH]c(=O)c(C(c2cccs2)c2c(O)c(C(=O)OCC)c(N3CCOCC3)[nH]c2=O)c1O
2. Nc1ccc2ccc(N3CCNCC3)nc2n1
3. CCOc1ccc2c(C)cc(=O)oc2c1

Ans.
1. > 100 µM (inactive)
2. 17.9 µM (inactive)
3. > 100 µM (inactive)

---

Tested on: SNB-75
Test: NCI tumour cell line growth inhibition, 48 h
Calls of active or inactive are those of the source. Cut-off read from the data, not from the text of the source: active = GI50 up to about 1.1 µM and inactive = higher.
parameterMeasured: GI50

Example molecules with recorded GI50:
[
  {
    "molecule": "CC(C)(C)OC(=O)NCCCC(=O)NC1(c2cc3ccccc3s2)CCCCC1",
    "GI50": "5.11 µM (inactive)"
  },
  {
    "molecule": "N#Cc1c(-c2ccccc2)c(-c2ccccc2)cc2c(=O)c3ccc(Cl)cc3[nH]c12",
    "GI50": "> 100 µM (inactive)"
  },
  {
    "molecule": "CC1=CC=C2c3ccccc3C=CN2C(=O)C1",
    "GI50": "38.4 µM (inactive)"
  },
  {
    "molecule": "Cc1ccc(OCC2OC(n3cnc4c(Cl)nc(N)nc43)CC2Oc2ccc(C)cc2)cc1 (stereo not given)",
    "GI50": "> 70.8 µM (inactive)"
  },
  {
    "molecule": "CCCCCCN1CCc2c(C)c(C#N)c3nc4ccccc4n3c21",
    "GI50": "32.4 µM (inactive)"
  }
]

Hello, I would appreciate it if you could give GI50 for each entry below.
1. Cc1cc2c(c(/C=N/c3ccc(N(C)C)cc3)c1)OC1(C=C2)Oc2ccccc2C(=O)N1C (stereo not given)
2. CN1CN(c2ccccc2)C2(CCN(CCCSc3ccccc3NC(=O)/C=C/c3ccccc3)CC2)C1=O

Ans.
["18 µM (inactive)", "5.52 µM (inactive)"]

Hello, I would appreciate it if you could give GI50 for each entry below.
1. COc1cc2c(cc1C)[n+]([O-])c(C)c(C(=O)C/C(=N/NC(=O)C[N+](C)(C)C)C(=O)Nc1cccc(Cl)c1C)[n+]2[O-]
2. CNC(=O)C(C)NC(=O)C(Cc1ccccc1)NC(=O)c1ccccc1 (stereo not given)

Ans.
1: > 100 µM (inactive); 2: > 100 µM (inactive)

Hello, I would appreciate it if you could give GI50 for each entry below.
1. CN1C(=O)[C@H](c2c[nH]c3ccccc23)[C@H](c2c[nH]c3ccccc23)C1=O
2. COc1ccc(OCC(=N/NC(=O)c2ccncc2)/N=C/c2cccnc2)cc1
3. O=C1c2ccccc2C2(c3ccc(Cl)cc3)N[C@@H]3CCCC[C@@H]3N12 (stereo not given in full)
4. O=C(Nc1c(Cl)cc([N+](=O)[O-])cc1Cl)C(=O)C(C(=O)c1ccncc1)C1OC(=O)c2ccccc21 (stereo not given)
5. COC1=CC(=O)C2(C=C1OC)OC[C@H]1Oc3c(ccc4c3C=CC(C)(C)O4)C(=O)[C@H]12 (stereo not given in full)
6. CCON=C1C(C)(C)C(C)(C)C(C)(C)C1(C)C
7. CC(=O)OCC1OC(n2c(-c3ccccc3)c(C)c(C)c(C#N)c2=S)C(OC(C)=O)C(OC(C)=O)C1OC(C)=O (stereo not given)

Ans.
["34.7 µM (inactive)", "24.2 µM (inactive)", "> 100 µM (inactive)", "35 µM (inactive)", "32.1 µM (inactive)", "> 100 µM (inactive)", "> 100 µM (inactive)"]

Hello, I would appreciate it if you could give GI50 for each entry below.
1. Cc1ccc(C(=O)O/N=C2/CCCC/C2=C\c2ccccc2)cc1
2. CCOC(=O)C(NC(=O)c1ccccc1)(N1CCN(c2cc3c(cc2F)c(=O)c(C(=O)O)cn3C2CC2)CC1)C(F)(F)F (stereo not given)
3. CC(C)/C(Cl)=N\OC(=O)Nc1ccc(S(N)(=O)=O)cc1

Ans.
["33.5 µM (inactive)", "24 µM (inactive)", "9.33 µM (inactive)"]

Qu. Which GI50 is listed for `O=C1c2scc(-c3ccc(Cl)cc3)c2-n2cccc21` ?
Ans. 2.4 µM (inactive)

---

Test system: CCRF-CEM
Assay: NCI tumour cell line growth inhibition, 48 h
Activity calls are given as the source filed them. Rule as the data show it: active = GI50 up to about 1.1 µM and inactive = higher.
Parameter call: string, one of y = active, n = inactive

Please review the entries below; each comes with its answer.
[
  {
    "compound": "Cc1cc(C)c([O-])c(-[n+]2c(-c3ccccc3)cc(-c3ccccc3)cc2-c2ccccc2)c1",
    "labelClass": "n"
  },
  {
    "compound": "NNC(=O)CC(=O)Nc1ccccc1Cl",
    "labelClass": "n"
  },
  {
    "compound": "O=c1c2ncn(COCCCl)c2n(-c2ccccc2)c(=S)n1-c1ccccc1",
    "labelClass": "n"
  }
]

Qu. // param item: `Cc1c2cc[n+](C)cc2c(C)c2c1[nH]c1ccc(O)c(OCC(F)(F)F)c12` ; yields the recorded call
Ans. n

Qu. Then what about the compound CC1CC(C[N+](=O)[O-])CC2(C1)OCCO2 (stereo unspecified) ?
Ans. n

Qu. Then what about the compound `Cc1cccc(/C=N/NC(=S)N2CCCCCC2)n1` ?
Ans. y

Qu. Then what about the compound `CN(C(=O)Cc1cc(Cl)c(Cl)cc1NC(=O)CN)[C@H]1CCCC[C@@H]1N1CCCC1` ?
Ans. n

Qu. Then what about the compound `N/C(=N\N/C=C1\C=Nc2cc(C(F)(F)F)ccc2C1=O)NO` ?
Ans. n

---

Test system: NCI-H522
Experiment: NCI tumour cell line growth inhibition, 48 h
The source made the active and inactive calls. No stated cut-off is given here; in the data, active = GI50 up to about 1.1 µM and inactive = higher.
Parameter call: string, one of YES (active), NO (inactive)

Please review the entries below; each comes with its answer.
[
  {
    "compound": "CCc1n[nH]c(=O)n1/N=C/c1c(O)ccc2ccccc12",
    "labelClass": "NO"
  },
  {
    "compound": "NC(=O)CC1OC(=O)Cc2cc3c(c(O)c21)C(=O)c1c(O)cccc1C3=O (configuration not stated)",
    "labelClass": "NO"
  },
  {
    "compound": "COC(=O)[C@@H]1C=C[C@H](OC2OC(COC(C)=O)C(OC(C)=O)C(OC(C)=O)C2OC(C)=O)n2c(=O)n(-c3ccccc3)c(=O)n21 (some centres not stated)",
    "labelClass": "YES"
  },
  {
    "compound": "Cc1cc([N+](=O)[O-])c(C)c2c1[nH]c1ccc(O)cc12",
    "labelClass": "NO"
  },
  {
    "compound": "O=c1[nH]c2[nH]c(-c3ccc(Br)cc3)cc2c2ccccc12",
    "labelClass": "NO"
  }
]

Qu. // param item: Brc1cccc(C2ON=C(c3ccccc3)N2C23CC4CC(CC(C4)C2)C3)c1 (configuration not stated) ; yields the recorded call
Ans. NO

Qu. Then what about the compound `Cc1cc2c(cc1C)[n+]([O-])c(C(=O)CC(=O)C(=O)Nc1ccccc1C(C)C)c(C)[n+]2[O-]` ?
Ans. NO

Qu. Then what about the compound `O=C1CCN2C(=N1)Sc1ccccc12` ?
Ans. NO

---

Tested on: 786-0
Assay: NCI tumour cell line growth inhibition, 48 h
Calls of active or inactive are those of the source. Cut-off read from the data, not from the text of the source: active = GI50 up to about 1.1 µM and inactive = higher.
Parameter call: string, one of active, inactive

Please review the entries below; each comes with its answer.
[
  {
    "molecule": "COc1ccc2cc3c4cc5c(cc4cc[n+]3cc2c1OC)OCO5",
    "labelClass": "inactive"
  },
  {
    "molecule": "CN(C)C(=S)SN(C)C(=O)Nc1ccccc1",
    "labelClass": "inactive"
  },
  {
    "molecule": "COC(=O)C1C=CCON2CCc3c(n(S(=O)(=O)c4ccccc4)c4ccccc34)C12 (configuration not stated)",
    "labelClass": "inactive"
  },
  {
    "molecule": "O=C(Nc1c(Cl)cc([N+](=O)[O-])cc1Cl)C(=O)C(C(=O)c1ccncc1)C1OC(=O)c2ccccc21 (configuration not stated)",
    "labelClass": "inactive"
  },
  {
    "molecule": "CN(c1ccccc1Cl)S(=O)(=O)c1ccccc1",
    "labelClass": "inactive"
  },
  {
    "molecule": "COc1cc(/C=C2\\N=C(c3ccccc3)N(C3Nc4cc5c(cc4S3)NC(N3C(=O)/C(=C/c4cc(OC)c(OC)c(OC)c4)N=C3c3ccccc3)S5)C2=O)cc(OC)c1OC (configuration not stated)",
    "labelClass": "inactive"
  }
]

Qu. // param item: `CN1CN(c2ccccc2)C2(CCN(CCCSc3ccccc3NC(=O)/C=C/c3ccccc3)CC2)C1=O` ; yields the recorded call
Ans. inactive

Qu. Then what about the molecule `O=C(c1ccco1)N1CCCN(C(=O)c2ccco2)C1=S` ?
Ans. inactive
